System: SK-MEL-28 melanoma
Experiment: NCI tumour cell line growth inhibition, 48 h
Measured GI50 of individual entries

The cases that follow already have their GI50 on record.
CCC(C)C1NC(=O)C(NC(=O)C(CC(C)C)N(C)C(=O)[C@@H]2CC(O)CN2C(=O)[C@H](C)O)C(C)OC(=O)[C@H](Cc2ccc(OC)cc2)N(C)C(=O)[C@@H]2CCCN2C(=O)[C@H](CC(C)C)NC(=O)C(C)C(=O)[C@H](C(C)C)OC(=O)CC1O (stereo partly drawn)
< 0.01 µM
COC(=O)c1cccc(NC(=O)c2ccc(NC3=C(Cl)C(=O)N(Cc4ccccc4)C3=O)cc2)c1
15.2 µM
C#CCNC(=O)CC[C@@H](C)[C@H]1CC[C@H]2[C@@H]3CC[C@@H]4CC(=O)CC[C@]4(C)[C@H]3CC[C@]12C
16.8 µM

Request: Give GI50 for the following molecule: Cc1cc(C)c2c(c1)N(C)c1ncnc(-n3cnc4cc(C)ccc43)c1CC2C (stereo not drawn)
Result: 5.61 µM

Request: Give GI50 for the following molecule: COc1cc2c(cc1OCCCN1CCN(C(=S)SCCC(C#N)(c3ccccc3)c3ccccc3)CC1)N=C[C@@H]1CCCN1C2=O
Result: 1.65 µM

Request: Give GI50 for the following molecule: O=C1OCC2=C1C(c1cccc(Cl)c1)c1cc3c(cc1N2CCO)CCC3 (stereo not drawn)
Result: 0.0574 µM

Request: Give GI50 for the following molecule: CCCCCCCCCC[C@H](O)[C@H]1CC[C@@H]([C@@H](O)CC[C@H](O)[C@@H]2CCC(CCCCCCC[C@@H](O)CC3=C[C@H](C)OC3=O)O2)O1 (stereo partly drawn)
Result: 7.62 µM

Request: Give GI50 for the following molecule: O=C(CCN1CCCN(c2cnc3ccccc3n2)CC1)c1csc2ccccc12
Result: 20.6 µM
